Biological target: Man(a1-3)[Man(a1-6)]Man(b1-4)GlcNAc(b1-4)[Fuc(a1-6)]GlcNAc
Test: glycan array binding signal (z-score within array); higher = stronger binding
Details: glycan notation: IUPAC condensed, linker removed
This excerpt belongs to a sample that is enriched for the strongest signals.
measure: glycan array binding signal (z-score)

# glycan array binding signal (z-score) (binder: SP16663B-bot-321-25-321 (Bacteroides ovatus) (protein) DDDDEVTMNSKFYLSTKVFPVDSYEASLSVILKDNSVVVNELQPNYRFVACATERLSKDVKITADSDDNLVSAYNKANDTEYNILPAENYSFTNKTVTIENGESVSGDSIKIELLNVGSLTTEGGYLLPVTISSIEGNNLDALSSNRGVVYLKIQNIHVNVESGQPAEGTLIADRSGWTVKVAPTTRGDAKNLIDGTNSDVARDGGAEYWLTVDIGKVQTLTGIRNKCYASSYSPTAVEVFTSSDGAKWKSIGAVTISKSGTQYIKFSKAVETRYLKYYVKQGPNTVSLTEFDLYAK ) is 0.967
